- systemTested: T1, DOK1 151-256 IRS (domain begin residue: 151, domain end residue: 256), Q99704
- T1 chain: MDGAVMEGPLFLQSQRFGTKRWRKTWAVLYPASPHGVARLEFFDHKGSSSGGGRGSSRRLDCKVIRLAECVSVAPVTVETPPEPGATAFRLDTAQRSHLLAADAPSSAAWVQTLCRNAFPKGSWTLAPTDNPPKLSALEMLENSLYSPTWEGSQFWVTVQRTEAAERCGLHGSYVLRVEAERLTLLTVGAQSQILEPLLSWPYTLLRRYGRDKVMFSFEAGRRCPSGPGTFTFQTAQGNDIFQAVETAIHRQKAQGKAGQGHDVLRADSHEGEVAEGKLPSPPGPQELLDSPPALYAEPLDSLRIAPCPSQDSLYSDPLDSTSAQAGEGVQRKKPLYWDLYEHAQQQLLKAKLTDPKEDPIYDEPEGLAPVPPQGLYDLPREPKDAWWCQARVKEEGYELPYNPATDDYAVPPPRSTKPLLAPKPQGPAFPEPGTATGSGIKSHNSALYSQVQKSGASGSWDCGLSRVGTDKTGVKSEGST
- methodSummary: phage ELISA signal ratio (GST-PRM binding over GST background); higher = stronger binding of peptide-phage to the PRM
Think of 20 as a floor: if phage ELISA signal ratio stands on it or above, it is Condition met; beneath it, Condition not met.

Use the examples below as a reference point.
QMVWHYPWEATDTHGW    Condition met
QWMGLSVEQFAMNPWY    Condition not met
EPWVDWSESMWAWVNT    Condition not met
WVTWDNSSLKWIDETY    Condition met
WVWHDMHLSAPFQHQE    Condition not met
PGEMQESNWLWKFVDW    Condition met
DWEAWHHNVDFAWGWV    Condition not met
DWVWSDVGGHVPQVWD    Condition met

Now take the following binder into account.
Exam item: Is phage ELISA signal ratio at least 20? Consider "DWPNYPANSWKYVTWA"
Marked response: Condition not met
